- target_or_test_system: mouse Sortilin (mouse, UniProt Q6PHU5 74-825); further: test concentration or dose not given here
- measurement_description: cell-based or functional assay
readout_name: Percent reduction of Sortilin levels in N2A cells (%)
Reply numerically in %, unit not repeated.

Look up Percent reduction of Sortilin levels in N2A cells for this binder: anti-Sortilin antibody S-15 (antibody, V domains shown) VH: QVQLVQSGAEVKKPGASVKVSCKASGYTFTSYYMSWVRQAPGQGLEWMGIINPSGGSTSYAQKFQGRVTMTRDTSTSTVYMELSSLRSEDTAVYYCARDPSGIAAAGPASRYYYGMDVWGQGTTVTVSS VL: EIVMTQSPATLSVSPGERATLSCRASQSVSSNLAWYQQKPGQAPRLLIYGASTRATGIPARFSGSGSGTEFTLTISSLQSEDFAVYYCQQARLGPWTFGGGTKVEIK
76.1
